Below is a list of entries, each paired with its recorded pKd value.
# assayed_system: JAK2 (JH1domain-catalytic, Y1007F,Y1008F) kinase (Homo sapiens, UniProt O60674, Y1007F/Y1008F)
# Construct: JAK2 (JH1domain-catalytic, Y1007F,Y1008F) kinase was expressed as N-terminal fusion
# Sequence (O60674 849-1124 Y1007F/Y1008F limits assumed): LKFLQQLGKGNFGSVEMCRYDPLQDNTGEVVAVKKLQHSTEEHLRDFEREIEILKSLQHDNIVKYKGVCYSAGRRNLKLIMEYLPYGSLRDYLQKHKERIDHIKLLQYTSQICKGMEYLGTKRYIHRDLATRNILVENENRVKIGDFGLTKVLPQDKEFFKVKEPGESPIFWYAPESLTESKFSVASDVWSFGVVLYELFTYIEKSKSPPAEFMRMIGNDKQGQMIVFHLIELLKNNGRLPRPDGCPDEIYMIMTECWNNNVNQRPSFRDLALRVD
# experiment_notes: JAK2 JH1 Domain Binding Assay
# condition: qPCR readout
pKd: −log10 of the molar value.

Below: 6 compounds and their reported pKd.
{"columns": ["compound", "pKd"],
 "data": [
  ["COCCOc1ccc2c(Oc3cnc4nc(Nc5cc6n(n5)CCCC6(F)F)n(C)c4c3C#N)cnn2c1", "> 8.00"],
  ["COc1c(Oc2cnn3ccncc23)cnc2nc(Nc3cc(C4CC4)cn([C@H]4CC[C@@H]4O)c3=O)n(C)c12 (single isomer, unassigned)", "> 8.00"],
  ["CNc1cn2ncc(Oc3cnc4nc(Nc5cc(C(=O)N(C)C)c(F)c(C(F)(F)F)c5)n(C)c4c3Cl)c2cn1", "7.30 to 8.00"],
  ["CN(C)[C@@H]1CCN(Cc2cc(C(F)(F)F)cc(Nc3nc4ncc(Oc5cnn6ccncc56)c(Cl)c4n3C)c2F)C1", "7.30 to 8.00"],
  ["Cn1c(Nc2cc(C3CC3)nn(CCO)c2=O)nc2ncc(Oc3cnn4ccccc34)c(Cl)c21", "> 8.00"],
  ["CNc1nccn2ncc(Oc3cnc4nc(Nc5cc(C6CC6)cn(C)c5=O)n(C)c4c3Cl)c12", "> 8.00"]
]}

Tell me its pKd given Cn1c(Nc2cc(C(F)(F)F)cn(CCCN3CCC(F)(F)C3)c2=O)nc2ncc(Oc3cnn4ccncc34)c(Cl)c21 as the entry. 7.30 to 8.00

Give a short answer stating reported pKd for Cn1cc(C(F)(F)F)cc(Nc2nc3ncc(Oc4cnn5ccnc(NCCN6CCOCC6)c45)c(Cl)c3n2C)c1=O . > 8.00

Please report pKd for the following compound: Cn1c(Nc2cc(N3CCC(O)CC3)cc(C(F)(F)F)c2)nc2ncc(Oc3cnn4ccncc34)c(Cl)c21 7.30 to 8.00

Return reported pKd. Input compound: CN1CCN(CCn2cc(C3CC3)cc(Nc3nc4ncc(Oc5cnn6ccccc56)c(Cl)c4n3C)c2=O)CC1 > 8.00

---

Measured pKd of individual entries
# assayed_system: JAK2 (JH1domain-catalytic, Y1007F,Y1008F) kinase (Homo sapiens, UniProt O60674, Y1007F/Y1008F)
# Construct: JAK2 (JH1domain-catalytic, Y1007F,Y1008F) kinase was expressed as N-terminal fusion; made in house; host or cells: transiently transfected HEK293 cells
# experiment_notes: JAK2 JH1 Domain Binding Assay
# condition: qPCR readout
pKd: −log10 of the molar value.

Known results for molecules:
{"columns": ["molecule", "pKd"],
 "data": [
  ["COCCN1CC[C@H](n2nc(Nc3nc4ncc(Oc5cnn6ccncc56)c(C(F)F)c4n3C)cc2C(C)(C)C)C1 [Example I-51]", "7.30 to 8.00"],
  ["CNc1nccn2ncc(Oc3cnc4nc(Nc5cc(C(F)(F)F)n(C6CC7(COC7)C6)n5)n(C)c4c3Cl)c12 [Example I-236]", "> 8.00"],
  ["COc1c(Oc2cnn3ccncc23)cnc2nc(Nc3cc(C4CC4)cn([C@H]4C[C@@H](O)C4)c3=O)n(C)c12 [Example I-74]", "> 8.00"],
  ["Cn1cc(C(F)(F)F)cc(Nc2nc3ncc(Oc4cnn5ccn(C)c(=O)c45)c(Cl)c3n2C)c1=O [Example I-323]", "7.30 to 8.00"]
]}

Now consider the entry below.
For the molecule CC(=O)N1CC2(CC(n3nc(Nc4nc5ncc(Oc6cnn7ccccc67)c(Cl)c5n4C)cc3C(F)(F)F)C2)C1 [Example I-278] , give its reported pKd. > 8.00
